System: ATP;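 also: ATP exposure 15 min at 22 °C before imaging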
Experiment: switch fluorescence ratio, 500 uM ATP over buffer (Cy3 cluster intensity, sum of 5 cycles each) (fold (ratio)); higher = stronger signal-on switching upon ATP binding; sequences stand for … in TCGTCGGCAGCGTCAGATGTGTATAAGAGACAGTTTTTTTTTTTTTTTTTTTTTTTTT…TC
Settings: aptamer strand: ATP DNA aptamer (quencher-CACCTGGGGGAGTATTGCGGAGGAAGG + anchor), 100 nM annealed; ATP concentration: 500 uM
switch fluorescence ratio vs 1: at or above is yes (1), below is no (0).

INSERT INTO measurements (sequence_data, system_name, class_assignment) VALUES
  ('TAAAAAAGCC', 'ATP', 'yes (1)'),
  ('CTATTGGCAA', 'ATP', 'yes (1)'),
  ('CATTTTTTTA', 'ATP', 'no (0)'),
  ('GATGATCTTT', 'ATP', 'no (0)'),
  ('CACTCTCTGA', 'ATP', 'no (0)'),
  ('GGGTGGATGA', 'ATP', 'yes (1)'),
  ('CCAGGCGCTA', 'ATP', 'yes (1)'),
  ('TTCGCCGGCC', 'ATP', 'yes (1)'),
  ('AAGTTACATT', 'ATP', 'yes (1)'),
  ('TCAAAACGGT', 'ATP', 'yes (1)'),
  ('ATCTTGTTGG', 'ATP', 'yes (1)'),
  ('GGGGTGGGAC', 'ATP', 'yes (1)'),
  ('AAACTTGCCC', 'ATP', 'yes (1)'),
  ('GAGCGGCTTC', 'ATP', 'yes (1)'),
  ('GGATTGAGGC', 'ATP', 'no (0)'),
  ('CCGGTTACGT', 'ATP', 'yes (1)'),
  ('TTTTACGACA', 'ATP', 'yes (1)'),
  ('TTAGACAAGG', 'ATP', 'no (0)'),
  ('AGAGGGCATT', 'ATP', 'no (0)'),
  ('TAATTACCTC', 'ATP', 'yes (1)'),
  ('TTCTAAGGGG', 'ATP', 'yes (1)'),
  ('TTAGCCCATG', 'ATP', 'yes (1)'),
  ('GCTTCAGGAG', 'ATP', 'yes (1)'),
  ('TGCGGGTCGG', 'ATP', 'yes (1)'),
  ('AGCAAAATGG', 'ATP', 'yes (1)'),
  ('GTTCTTGATG', 'ATP', 'no (0)'),
  ('ATCTACATTA', 'ATP', 'yes (1)'),
  ('TAGGAGGGGC', 'ATP', 'no (0)'),
  ('GGCGATACTA', 'ATP', 'yes (1)'),
  ('AAGTCAGTGC', 'ATP', 'yes (1)'),
  ('CCGGACGGAA', 'ATP', 'yes (1)'),
  ('CGAACAGGTT', 'ATP', 'yes (1)'),
  ('TGGCCAAATT', 'ATP', 'yes (1)'),
  ('ATTTGATATG', 'ATP', 'no (0)'),
  ('GGGGGCATGA', 'ATP', 'no (0)');
